EC50 by entry:
Test: inhibitors of SNCA 5'UTR-driven reporter translation, confirmation, H4 neuroglioma cells, luminescence (AID 1988)
Type: functional, cell-based
Calls of active or inactive are those of the source. Cut-off read from the data, not from the text of the source: actives have a measured EC50 and inactives only a lower limit.

[
  {
    "Smiles Notation": "CCNC(=S)N/N=C/c1cn(Cc2ccccc2F)c2ccccc12",
    "EC50": "19.7 µM (active)"
  },
  {
    "Smiles Notation": "O=C(/C=C/c1ccccc1)c1cc(Br)ccc(=O)c1O",
    "EC50": "> 120 µM (not active)"
  },
  {
    "Smiles Notation": "C=CCn1c(CNc2ccccc2)nnc1SCC(=O)N/N=C/c1ccccc1O",
    "EC50": "> 120 µM (not active)"
  },
  {
    "Smiles Notation": "O=C(NC1CCCCC1)C1CCN(C(=O)c2ccc(-c3ccccc3)cc2)CC1",
    "EC50": "77.5 µM (active)"
  },
  {
    "Smiles Notation": "CC/C(NCc1cc(OC)cc(OC)c1)=C1/C(=O)NC(=O)N(C2CCCCC2)C1=O",
    "EC50": "27.2 µM (active)"
  }
]
